Data credit: patent US20250215104A1

target: T1, human soluble urokinase plasminogen activator receptor (hsuPAR) (human, UniProt Q03405 23-303, limits assumed); assay: off-rate screen of scFv clones (kdis), Octet BLI
T1 construct: also called human suPAR; rhuPAR-His
T1 sequence (Q03405 23-303 limits assumed): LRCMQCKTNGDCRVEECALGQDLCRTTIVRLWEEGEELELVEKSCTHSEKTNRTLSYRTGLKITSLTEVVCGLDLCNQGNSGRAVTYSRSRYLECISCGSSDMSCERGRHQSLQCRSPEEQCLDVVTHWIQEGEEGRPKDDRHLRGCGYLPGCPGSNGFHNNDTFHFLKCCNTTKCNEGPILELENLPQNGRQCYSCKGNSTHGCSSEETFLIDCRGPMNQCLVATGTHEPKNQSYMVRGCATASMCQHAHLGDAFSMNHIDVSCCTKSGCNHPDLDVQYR
koff reference
Kindly answer with a numeric value in s⁻¹, unit omitted.

Binder	Unit spec	koff
suPAR_DB04_C11 (scFv, V domains shown, scFv clone from phage display) VH: QVQLVQSGAEVKKPGASVKVSCKASGYSFTDYYMHWVRQAPGQGLEWMGWIDPENGSTIYDQKFQGRVTMTRDTSTSTVYMELSSLRSEDTAVYYCARGYDVDWFVYWGQGTLVTVSS VL: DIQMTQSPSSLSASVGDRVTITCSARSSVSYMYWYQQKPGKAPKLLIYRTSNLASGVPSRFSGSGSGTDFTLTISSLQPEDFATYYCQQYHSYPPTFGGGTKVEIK	s⁻¹	0.00562
suPAR_DB04_E08 (scFv, V domains shown, scFv clone from phage display) VH: QVQLVQSGAEVKKPGASVKVSCKASGYTFTGYYMHWVRQAPGQGLEWMGWIDHENGNTSYAQKFQGRVTMTRDTSTSTVYMELSSLRSEDTAVYYCARGYDVDWFVYWGQGTLVTVSS VL: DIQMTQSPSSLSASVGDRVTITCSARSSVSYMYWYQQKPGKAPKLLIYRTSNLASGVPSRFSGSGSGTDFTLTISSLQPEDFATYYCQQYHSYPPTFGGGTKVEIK	s⁻¹	0.00268

We now examine a further binder.
Ask: Return reported koff; argument: suPAR_DB04_F01 (scFv, V domains shown, scFv clone from phage display) VH: QVQLVQSGAEVKKPGASVKVSCKASGYTFTSYYMHWVRQAPGQGLEWMGWIDHEGGNTIYAQKFQGRVTMTRDTSTSTVYMELSSLRSEDTAVYYCARGDDVDWFVYWGQGTLVTVSS VL: DIQMTQSPSSLSASVGDRVTITCSASQSVSYMYWYQQKPGKAPKLLIYRTSNLASGVPSRFSGSGSGTDFTLTISSLQPEDFATYYCQQYHSYPPTFGGGTKVEIK
Reply: 0.00267
